# Test system: MAPK p38 phosphorylation
# procedure.text: MAPK p38 Activation Assay (western blot), Panc-1
# Type: cell-based, human
# measurement.parameters: at 10 μM, Panc-1 pancreatic cancer cell line; starred symbols = activation
observation.type: % inh of MAPK p38 in Panc-1

molecule=CO[C@H]1C[C@@H](Nc2nc(-c3nccn3C)nn3cc(-c4ccncc4)c(-c4ccccc4)c23)C1 data_value="E (E = 1-30% inhibition)"
molecule=CO[C@H]1C[C@H](Nc2nc(-c3nccn3C)nn3cc(-c4ccc(CN)cc4)c(-c4ccccc4)c23)C1.Cl data_value="E (E = 1-30% inhibition)"
molecule="CO[C@@H]1C[C@H]1Nc1nc(-c2nccn2C)nn2cc(-c3cccnc3)c(-c3ccccc3)c12 (racemic)" data_value="E (E = 1-30% inhibition)"
